Readings of melting point for the listed molecules

[[record]]
molecule = "CC(C)(C)OC(=O)CC(=O)CO[C@H]1NC(=O)[C@@H]1NC(=O)c1ccccc1"
measured_value = "142 °C"

[[record]]
molecule = "Cc1ccc(NC(=O)N2CCN(CCc3ccc(-c4cccc(N)n4)cc3)CC2)cc1C"
measured_value = "122 to 125 °C"

[[record]]
molecule = "CCCN1C(=O)N(C2CCN(Cc3cccc(CO)c3)CC2)C(c2ccccc2)c2ccccc21 (centres undefined)"
measured_value = "108 to 112 °C"

[[record]]
molecule = "COc1cc(CC(CO)NC(=O)c2ccccc2)cc(OC)c1 (centres undefined)"
measured_value = "117 to 118 °C"

[[record]]
molecule = "CC(=O)Nc1cccc2c1C(=O)OC2(C)C"
measured_value = "124 °C"

[[record]]
molecule = "COc1cc(-c2ncc(C(F)(F)F)cc2OC)ccc1Cl"
measured_value = "62 to 63 °C"

[[record]]
molecule = "CS(=O)(=O)Nc1nn(CCN2CCCCC2)cc1-c1ccccc1"
measured_value = "121 °C"

[[record]]
molecule = "N#Cc1cc(C(=O)NNC(=O)c2occ(-c3cccc(OCc4ccccc4)c3)c2-c2cccc(OCc3ccccc3)c2)ccc1O"
measured_value = "171 to 174 °C"


As a next step, examine the molecule that follows.
Data request: Provide melting point value for the following molecule: "NC(=O)c1cccc(-c2nc(-c3ccccc3)c(-c3nc4ccccc4c(=O)n3-c3ccccc3Cl)s2)c1"
Data returned: 212 to 214 °C
